Listing of recorded GI50 by entry.
- Tested on: SF-268
- assay.protocol: NCI tumour cell line growth inhibition, 48 h
The source made the active and inactive calls. No stated cut-off is given here; in the data, active = GI50 up to about 1.1 µM and inactive = higher.

molecule: C=C(CC[C@@H](C)[C@H]1CC[C@H]2[C@@H]3C[C@@H](O)[C@H]4C[C@@H](O)CC[C@]4(CO)[C@H]3CC[C@]12C)C(C)C
GI50: 6.35 µM (inactive)

molecule: CCOc1ccc(/N=N/c2ccc3oc(=O)c(/C(C)=N/NC(=O)CC(=O)Nc4cccc(OC)c4)cc3c2)cc1
GI50: 13.3 µM (inactive)

molecule: CCOC(=O)C(Cc1c2ccccc2cc2ccccc12)(NC(C)=O)C(=O)OCC
GI50: 36.9 µM (inactive)

molecule: COC(=O)C(=O)C(C(=O)C(=O)Nc1ccccc1C(C)=O)c1nc2ccc(C(=O)c3ccccc3)cc2nc1O (centres undefined)
GI50: 68.2 µM (inactive)
